- measurementProtocol: Simulated intestinal fluid (SIF) stability in the presence of various enzymes
- Format: in vitro ADME
- conditionInfo: SIF + Chymotrypsin, 60 min, 1 μM
assayReadout: % Remaining of Initial (n = 1)

1. CCCCCCCCCCCCCCCC(=O)NCCOC(=O)CCC(=O)OCC(O)CO (centres unmarked)
11%
2. CCCCCCCCCCCCCCCC(=O)NCCOC(=O)CCC(=O)OCC(COC(=O)CCCCCCC)OC(=O)CCCCCCC (centres unmarked) [Compound I-3, PEA-Succinate-Glycerol-Di-Caprylic]
61%
3. CCCCC/C=C\C/C=C\CCCCCCCC(=O)OCC(COC(=O)CCC(=O)OCCNC(=O)CCCCCCCCCCCCCCC)OC(=O)CCCCCCC/C=C\C/C=C\CCCCC (centres unmarked)
45%
4. CC/C=C\C/C=C\C/C=C\C/C=C\C/C=C\CCCC(=O)OCCNC(=O)CCCCCCCCCCCCCCC
37%
5. CCCCCCCCCCCCCCCC(=O)NCCOC(=O)CCC(=O)OCC(COC(=O)CCC)OC(=O)CCC (centres unmarked)
42%
6. CCCCCCCCCCCCCCCC(=O)NCCOC(=O)CCC(=O)OC[C@H]1O[C@@](CO)(O[C@H]2O[C@H](CO)[C@@H](O)[C@H](O)[C@H]2O)[C@@H](O)[C@@H]1O
13%
7. CCCCC/C=C\C/C=C\CCCCCCCC(=O)OCCNC(=O)CCCCCCCCCCCCCCC
51%
8. CCCCCCCCCCCCCCCC(=O)NCCOC(=O)CCC
60%
